test.system: Human recombinant PDE2A (hPDE2A) (Homo sapiens)
Construct: His tag (inferred from metal chelate purification); made in house; host or cells: Sf9 insect cells (baculovirus)
Sequence (O00408 whole entry): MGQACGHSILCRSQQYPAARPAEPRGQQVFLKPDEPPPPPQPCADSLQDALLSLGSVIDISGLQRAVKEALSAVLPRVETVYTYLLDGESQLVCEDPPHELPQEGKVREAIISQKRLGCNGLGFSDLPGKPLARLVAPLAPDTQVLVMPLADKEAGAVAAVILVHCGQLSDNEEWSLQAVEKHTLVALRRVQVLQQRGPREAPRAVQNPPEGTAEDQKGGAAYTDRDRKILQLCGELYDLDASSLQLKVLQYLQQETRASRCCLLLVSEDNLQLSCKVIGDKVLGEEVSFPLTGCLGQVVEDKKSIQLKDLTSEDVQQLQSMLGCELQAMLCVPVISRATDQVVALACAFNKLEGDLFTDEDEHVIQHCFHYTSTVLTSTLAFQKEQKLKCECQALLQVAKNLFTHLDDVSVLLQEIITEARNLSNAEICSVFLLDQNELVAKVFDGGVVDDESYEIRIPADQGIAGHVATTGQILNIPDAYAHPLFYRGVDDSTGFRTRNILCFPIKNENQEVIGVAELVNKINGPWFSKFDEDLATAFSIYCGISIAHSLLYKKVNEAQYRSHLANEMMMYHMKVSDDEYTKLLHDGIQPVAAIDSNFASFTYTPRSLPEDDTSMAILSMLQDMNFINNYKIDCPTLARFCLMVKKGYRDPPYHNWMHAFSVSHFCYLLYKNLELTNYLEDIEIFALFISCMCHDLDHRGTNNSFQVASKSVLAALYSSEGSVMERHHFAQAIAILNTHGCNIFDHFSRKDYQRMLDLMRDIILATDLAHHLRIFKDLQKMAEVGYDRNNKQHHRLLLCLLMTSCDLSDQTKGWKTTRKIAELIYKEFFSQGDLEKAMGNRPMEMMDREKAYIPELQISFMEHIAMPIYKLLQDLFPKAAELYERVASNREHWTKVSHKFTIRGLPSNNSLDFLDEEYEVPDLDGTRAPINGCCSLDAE
assay.comment: In vitro assay PDE2A (SPA, 3H-cGMP hydrolysis)
Type: biochemical
conditions: human recombinant PDE2A; read-out: hPDE2A Emax

| compound | Emax |
| --- | --- |
| C[C@@H]1CCN(C(=O)c2ccc(N)nc2)C[C@H]1c1cc(C(F)F)nc2ncnn12 | 98% |
| O=C(c1ccc2ncsc2c1)N1[C@H]2CC[C@H](c3cc(C(F)F)nc4ncnn34)[C@@H]1CC2 [Compound 25a] | 100% |
| Cc1cc(C(=O)N2CCC[C@](C)(c3cc(C(F)F)nc4ncnn34)C2)cc(C)n1 (single isomer, unassigned) | 3% |
| Cc1cc(C(=O)N2[C@H]3CC[C@@H]2[C@H](c2cc(C(F)F)nc4ncnn24)CC3)cc(C)n1 | 77% |
| C[C@@H]1CCN(C(=O)c2ccc(O)c(C#N)c2)C[C@H]1c1cc(C(F)F)nc2ncnn12 | 97% |
| COc1cc(C(=O)N2CC[C@@H](C)[C@H](c3cc(C(F)F)nc4ncnn34)C2)cc(C2CC2)n1 | 99% |
| CCCC[C@H]1CCN(C(=O)c2cc(C)nc(C)c2)C[C@@H]1c1cc(C(F)F)nc2ncnn12 (single isomer, unassigned) | 100% |
| CC1(c2ccnc3ncnn23)CCCN(C(=O)c2ccc3occc3c2)C1 (stereo not drawn) | 30% |
| CC(C)Oc1cc(C(=O)N2CC[C@@H](C)[C@H](c3cc(C(F)F)nc4ncnn34)C2)cc(C(C)C)c1 | 100% |
| COc1cc(C(=O)N2CC[C@@H](C)[C@H](c3cc(C(F)F)nc4ncnn34)C2)ccc1F | 98% |
| C[C@@H]1CCN(C(=O)c2ccc(F)c(C(F)F)c2)C[C@H]1c1cc(C(F)F)nc2ncnn12 | 100% |
| Cc1cc([C@H]2CN(C(=O)c3ccc4nccn4c3)CC[C@@H]2C)n2ncnc2n1 | 98% |
| C[C@@H]1CCN(C(=O)c2ncccc2N)C[C@H]1c1cc(C(F)F)nc2ncnn12 | 94% |
| Cc1cc(C(=O)N2CC[C@@H](C)[C@H](c3cc(C(F)F)nc4ncnn34)C2)c(F)c(C)n1 | 102% |
| C[C@@H]1CCN(C(=O)c2ccncc2F)C[C@H]1c1cc(C(F)F)nc2ncnn12 | 98% |
| CCCC[C@@H]1CCN(C(=O)c2cc(C)nc(C)c2)C[C@H]1c1cc(C(F)F)nc2ncnn12 (single isomer, unassigned) [Compound 45] | 37% |
| C[C@@H]1CCN(C(=O)c2cccc3ncoc23)C[C@H]1c1cc(C(F)F)nc2ncnn12 | 100% |
| C[C@@H]1CCN(C(=O)c2cnc(Cl)c(Cl)c2)C[C@H]1c1cc(C(F)F)nc2ncnn12 | 99% |
| Cc1cc(C(=O)N2CC[C@H](C)[C@@](F)(c3cc(C(F)F)nc4ncnn34)C2)cc(C2CC2)n1 [Compound 24a] | 80% |
| COc1cc(C(=O)N2CC[C@@H](C)[C@H](c3cc(C(F)F)nc4ncnn34)C2)ccc1Cl | 100% |
| C[C@@H]1CCN(C(=O)c2cc3c(nc2Cl)CCCC3)C[C@H]1c1cc(C(F)F)nc2ncnn12 | 100% |
| C[C@@H]1CCN(C(=O)c2cccc(C(C)(C)C#N)c2)C[C@H]1c1cc(C(F)F)nc2ncnn12 | 100% |
| C[C@@H]1CCN(C(=O)c2cnc(N(C)C)nc2)C[C@H]1c1cc(C(F)F)nc2ncnn12 | 99% |
| Cc1c(C(=O)N2CC[C@@H](C)[C@H](c3cc(C(F)F)nc4ncnn34)C2)ccnc1Cl | 100% |

Reference for the values: patent US10947242B2
